target: Anti-CD28 scFv (VH-linker 1-VL) (biotinylated for capture on neutravidin plates); assay: phage ELISA, scFv captured on plate, competitor soluble CD28;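 note: crude clonal phage supernatants added to wells pre-incubated with soluble CD28 or with blocking buffer only as control, bound phage read out with HRP-linked anti-M13 antibody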
Sequence (scFv, as listed by the source): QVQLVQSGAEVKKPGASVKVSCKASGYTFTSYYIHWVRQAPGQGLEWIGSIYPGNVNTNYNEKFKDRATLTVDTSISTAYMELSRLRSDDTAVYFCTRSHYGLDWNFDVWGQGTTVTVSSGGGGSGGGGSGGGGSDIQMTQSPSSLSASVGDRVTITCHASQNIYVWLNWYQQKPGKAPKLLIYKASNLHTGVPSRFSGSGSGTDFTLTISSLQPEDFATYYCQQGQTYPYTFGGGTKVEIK
Measured Phage binding ELISA CD28 scFv signal in presence of CD28 values are reported for all entries that follow.
Please reply with the number alone, leaving off any unit.

These solved cases illustrate the format of a correct answer.
MDWCPKHLWHQCFH [Phage-156]: 0.108
MSWCPRDMWFYCYA [Phage-203]: 0.174
MDWCPRYLWHECFH [Phage-137]: 0.308
MDWCPRDMWYECFN [Phage-191]: 0.235
MDWCPSYLWTVCFA [Phage-129]: 0.096

Any idea what Phage binding ELISA CD28 scFv signal in presence of CD28 was measured for MDWCPTYMWSECFN [Phage-214] ?
0.107

Any idea what Phage binding ELISA CD28 scFv signal in presence of CD28 was measured for MDWCPRDLWAVCFA [Phage-149] ?
0.089

Any idea what Phage binding ELISA CD28 scFv signal in presence of CD28 was measured for MDWCPRFLWDECFF [Phage-133] ?
0.246

Any idea what Phage binding ELISA CD28 scFv signal in presence of CD28 was measured for MYWCPRDLWDVCFN [Phage-181] ?
0.102

Any idea what Phage binding ELISA CD28 scFv signal in presence of CD28 was measured for MDWCPRYMWYQCFS [Phage-196] ?
0.357

Where do the numbers come from? From patent US20230357447A1.
